# assay_system: hCD3 (human CD3 antigen) (human, UniProt P07766 23-126)
# Sequence (P07766 23-126): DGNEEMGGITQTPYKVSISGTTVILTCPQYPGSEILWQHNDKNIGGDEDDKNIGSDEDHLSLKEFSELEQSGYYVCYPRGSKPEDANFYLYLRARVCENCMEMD
# test_protocol: ELISA, plate-coated hCD3
The following binders are listed with their measured EC50 values.
measured_property: EC50 (pM)

binder	reported_measurement
CD3 Ab11 (antibody, human IgG1, kappa, V domains shown, also called humanized anti-CD3 monoclonal antibody) VH: EVQLVESGGGLVQPGGSLRLSCAASGFTFNTYAMNWVRQAPGKGLEWVARIRSKYNNYATYYADSVKDRFTISRDDSKNILYLQMNSLKTEDTAMYYCVRHGNFGNSYVSWFAYWGQGTLVTVSA VL: QAVVTQEPSLTVSPGGTVTLTCRSSTGAVTTSNYANWVQQKPGQAPRGLIGGTNKRAPWTPARFSGSLLGGKAALTLSGAQPEDEAEYYCALWYSNLWVFGGGTKLTVLR	11.8
CD3 Ab06 (antibody, human IgG1, kappa, V domains shown, also called humanized anti-CD3 monoclonal antibody) VH: EVQLVESGGGLVQPGGSLRLSCAASGFTFNTYAMNWVRQAPGKGLEWVARIRSKYNNYATYYADSVKDRFTISRDDSKNILYLQMNSLKTEDTAVYYCVRHGNFGNSYVSWFAYWGQGTLVTVSA VL: QAVVTQEPSLTVSPGGTVTLTCRSSTGAVTTSNYANWVQQKPGQAPRGLIGGTNKRAPWTPARFSGSLLGGKAALTLSGAQPEDEAEYYCALWYSNLWVFGGGTKLTVLR	12.6
CD3 Ab14 (antibody, human IgG1, kappa, V domains shown, also called humanized anti-CD3 monoclonal antibody) VH: EVQLVESGGGLVQPGGSLRLSCAASGFTFNTYAMNWVRQAPGKGLEWVARIRSKYNNYATYYADSVKDRFTISRDDSKNILYLQMNSLKTEDTAMYYCVRHGNFGNSYVSWFAYWGQGTLVTVSA VL: QAVVTQEPSLTVSPGGTVTLTCRSSTGAVTTSNYANWVQQKPGQAPRGLIGGTNKRAPWVPARFSGSLLGDKAALTLSGAQTEDEAEYYCALWYSNLWVFGGGTKLTVLR	8.7
CD3 Ab12 (antibody, human IgG1, kappa, V domains shown, also called humanized anti-CD3 monoclonal antibody) VH: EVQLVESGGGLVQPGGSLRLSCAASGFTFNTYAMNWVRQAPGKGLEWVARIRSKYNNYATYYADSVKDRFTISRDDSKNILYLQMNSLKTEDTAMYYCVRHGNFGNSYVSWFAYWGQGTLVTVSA VL: QAVVTQEPSLTVSPGGTVTLTCRSSTGAVTTSNYANWVQQKPGQAPRGLIGGTNKRAPWTPARFSGSLLGGKAALTLSGAQTEDEAEYYCALWYSNLWVFGGGTKLTVLR	9.5
CD3 Ab15 (antibody, human IgG1, kappa, V domains shown, also called humanized anti-CD3 monoclonal antibody) VH: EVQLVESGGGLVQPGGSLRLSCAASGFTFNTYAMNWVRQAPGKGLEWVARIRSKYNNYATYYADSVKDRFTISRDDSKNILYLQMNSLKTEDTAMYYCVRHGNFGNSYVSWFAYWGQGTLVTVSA VL: QAVVTQEPSLTVSPGGTVTLTCRSSTGAVTTSNYANWVQEKPGQAPRGLIGGTNKRAPWVPARFSGSLLGDKAALTLSGAQTEDEAEYYCALWYSNLWVFGGGTKLTVLR	9.9
CD3 Ab09 (antibody, human IgG1, kappa, V domains shown, also called humanized anti-CD3 monoclonal antibody) VH: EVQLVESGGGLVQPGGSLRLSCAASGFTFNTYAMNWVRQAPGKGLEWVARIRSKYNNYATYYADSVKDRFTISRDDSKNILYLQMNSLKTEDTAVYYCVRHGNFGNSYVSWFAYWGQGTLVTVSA VL: QAVVTQEPSLTVSPGGTVTLTCRSSTGAVTTSNYANWVQQKPGQAPRGLIGGTNKRAPWVPARFSGSLLGDKAALTLSGAQTEDEAEYYCALWYSNLWVFGGGTKLTVLR	8
CD3 Ab05 (antibody, human IgG1, kappa, V domains shown, also called humanized anti-CD3 monoclonal antibody) VH: EVQLVESGGGLVQPGGSLRLSCAASGFTFNTYAMNWVRQAPGKGLEWVARIRSKYNNYATYYADSVKDRFTISRDDSKNSLYLQMNSLKTEDTAVYYCVRHGNFGNSYVSWFAYWGQGTLVTVSA VL: QAVVTQEPSLTVSPGGTVTLTCRSSTGAVTTSNYANWVQEKPGQAPRGLIGGTNKRAPWVPARFSGSLLGDKAALTLSGAQTEDEAEYYCALWYSNLWVFGGGTKLTVLR	9.9
CD3 Ab08 (antibody, human IgG1, kappa, V domains shown, also called humanized anti-CD3 monoclonal antibody) VH: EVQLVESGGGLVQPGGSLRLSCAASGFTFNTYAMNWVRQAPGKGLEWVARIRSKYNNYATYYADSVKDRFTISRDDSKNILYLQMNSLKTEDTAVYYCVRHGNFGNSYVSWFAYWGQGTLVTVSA VL: QAVVTQEPSLTVSPGGTVTLTCRSSTGAVTTSNYANWVQQKPGQAPRGLIGGTNKRAPWTPARFSGSLLGGKAALTITGAQTEDEAEYYCALWYSNLWVFGGGTKLTVLR	11.6
CD3 Ab04 (antibody, human IgG1, kappa, V domains shown, also called humanized anti-CD3 monoclonal antibody) VH: EVQLVESGGGLVQPGGSLRLSCAASGFTFNTYAMNWVRQAPGKGLEWVARIRSKYNNYATYYADSVKDRFTISRDDSKNSLYLQMNSLKTEDTAVYYCVRHGNFGNSYVSWFAYWGQGTLVTVSA VL: QAVVTQEPSLTVSPGGTVTLTCRSSTGAVTTSNYANWVQQKPGQAPRGLIGGTNKRAPWVPARFSGSLLGDKAALTLSGAQTEDEAEYYCALWYSNLWVFGGGTKLTVLR	6.8
